Target: KCNQ2/3 channels (Homo sapiens, UniProt O43525+O43526)
Construct: expressed in transfected cells
Assay: Fluorescence assay using a voltage sensitive dye (fluorimetry)
Type: cell-based
Conditions: CHO-K1 cells expressing KCNQ2/3 channels; relative to retigabine = 100%; read-out: Fluorimetry % efficacy (retigabine = 100%)
Experimental: Method I. Fluorescence Assay Using a Voltage Sensitive Dye (Fluorimetry) […] Before being sown out for the measurements, the cells are washed with 1×DPBS buffer Ca^2+/Mg^2+-free (e.g. Invitrogen, #14190-094) and detached from the bottom of the culture vessel by using Accutase (PAA Laboratories, #L11-007) (incubation with Accutase for 15 min at 37° C.). The cell number is determined using a CASY™ cell counter (TCC, Schärfe System). […]
Listed compounds paired with reported Emax

Use these answered entries as a reference point.
[
  {
    "compound": "Cc1c(C(=O)NCc2cccc(F)c2)c(CC(C)(C)C)nc2cc(C(F)(F)F)ccc12 [Example 18]",
    "reported measurement": "187%"
  },
  {
    "compound": "Cc1c(C(=O)NCc2ccc(F)cc2)c(C2CC2)nc2cc(C(F)(F)F)ccc12 [Example 9]",
    "reported measurement": "161%"
  }
]

Here's the next entry for you.
Consider the compound shown here: Cc1c(C(=O)NCc2cccc(F)c2)c(CO)nc2cc(C(F)(F)F)ccc12 [Example 17] What is its recorded Emax?
102%
